B1: Ankyrin-1, residues 1405 to 1484; numbered along this chain, P16157 (parent)
chain: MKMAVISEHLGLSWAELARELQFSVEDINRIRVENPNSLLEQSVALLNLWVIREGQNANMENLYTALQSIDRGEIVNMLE

Variants of: B1
Experiment: abundance fitness (aPCA) (normalised: wild type 0, dead -1); higher = more abundant; growth selection in yeast, the domain comes from the species named
Conditions: Homo sapiens
Measured Property: abundance fitness
Please give the numeric answer without any surrounding text.

Would you please look over these solved cases?
The variant listed as `E80F` has a reported abundance fitness of -0.023

The variant listed as `I28Y` has a reported abundance fitness of -0.485

The variant listed as `L63M` has a reported abundance fitness of -0.027

The variant listed as `E34P` has a reported abundance fitness of -0.992

The variant listed as `I70R` has a reported abundance fitness of -0.437

The variant listed as `N37K` has a reported abundance fitness of 0.023

The variant listed as `E26G` has a reported abundance fitness of -0.127

The variant listed as `R32C` has a reported abundance fitness of -0.13

New cases:
The variant listed as `Y64P` has a reported abundance fitness of -0.725

The variant listed as `T65P` has a reported abundance fitness of 0.095

The variant listed as `L39E` has a reported abundance fitness of 0.105

The variant listed as `N62P` has a reported abundance fitness of -0.265

The variant listed as `I70V` has a reported abundance fitness of -0.193

The variant listed as `N48V` has a reported abundance fitness of -0.474
